// data source = paper PMC4948680

test: in vivo
Set-up: species or system Swiss albino mice
assayContext: Swiss albino, mouse, iv, 10 pmol peptide, total radioactivity, %ID/g tissue, Heart
valueType: tissue uptake at 4 h (%ID/g)
Give the value in %ID/g but do not write %ID/g after it.

Looking up CSCC[C@H](NC(=O)[C@H](Cc1c[nH]c2ccccc12)NC(=O)CNC(=O)[C@H](Cc1ccc(O)cc1)NC(=O)[C@H](C)NC(=O)[C@@H](CCC(=O)O)NC(=O)[C@@H](CCC(=O)O)NC(=O)[C@@H](CCC(=O)O)NC(=O)[C@@H](CCC(=O)O)NC(=O)[C@@H](CCC(=O)O)NC(=O)[C@@H](CCC(=O)O)NC(=O)CN1CCN(CC(=O)O)CCN(CC(=O)O)CCN(CC(=O)O)CC1)C(=O)N[C@@H](CC(=O)O)C(=O)N[C@@H](Cc1ccccc1)C(N)=O [^111In-CP04, metal not drawn] , I found its tissue uptake at 4 h recorded as 0.03

----------
test: in vivo
Set-up: species or system Swiss albino mice
assayContext: Swiss albino, mouse, iv, 10 pmol peptide, total radioactivity, %ID/g tissue, Heart
valueType: tissue uptake at 72 h (%ID/g)
Give the value in %ID/g but do not write %ID/g after it.

Looking up CSCC[C@H](NC(=O)[C@H](Cc1c[nH]c2ccccc12)NC(=O)CNC(=O)[C@H](Cc1ccc(O)cc1)NC(=O)[C@H](C)NC(=O)[C@@H](CCC(=O)O)NC(=O)[C@@H](CCC(=O)O)NC(=O)[C@@H](CCC(=O)O)NC(=O)[C@@H](CCC(=O)O)NC(=O)[C@@H](CCC(=O)O)NC(=O)[C@@H](CCC(=O)O)NC(=O)CN1CCN(CC(=O)O)CCN(CC(=O)O)CCN(CC(=O)O)CC1)C(=O)N[C@@H](CC(=O)O)C(=O)N[C@@H](Cc1ccccc1)C(N)=O [^111In-CP04, metal not drawn] , I found its tissue uptake at 72 h recorded as 0.03

----------
test: in vivo
Parameters: species or system Swiss albino mice
assayContext: Swiss albino, mouse, iv, 10 pmol peptide, total radioactivity, %ID/g tissue, Kidneys
valueType: tissue uptake at 4 h (%ID/g)
Give the value in %ID/g but do not write %ID/g after it.

Looking up CSCC[C@H](NC(=O)[C@H](Cc1c[nH]c2ccccc12)NC(=O)CNC(=O)[C@H](Cc1ccc(O)cc1)NC(=O)[C@H](C)NC(=O)[C@@H](CCC(=O)O)NC(=O)[C@@H](CCC(=O)O)NC(=O)[C@@H](CCC(=O)O)NC(=O)[C@@H](CCC(=O)O)NC(=O)[C@@H](CCC(=O)O)NC(=O)[C@@H](CCC(=O)O)NC(=O)CN1CCN(CC(=O)O)CCN(CC(=O)O)CCN(CC(=O)O)CC1)C(=O)N[C@@H](CC(=O)O)C(=O)N[C@@H](Cc1ccccc1)C(N)=O [^111In-CP04, metal not drawn] , I found its tissue uptake at 4 h recorded as 7.9

----------
test: in vivo
Set-up: species or system Swiss albino mice
assayContext: Swiss albino, mouse, iv, 10 pmol peptide, total radioactivity, %ID/g tissue, Stomach
valueType: tissue uptake at 0.5 h (%ID/g)
Give the value in %ID/g but do not write %ID/g after it.

Looking up CSCC[C@H](NC(=O)[C@H](Cc1c[nH]c2ccccc12)NC(=O)CNC(=O)[C@H](Cc1ccc(O)cc1)NC(=O)[C@H](C)NC(=O)[C@@H](CCC(=O)O)NC(=O)[C@@H](CCC(=O)O)NC(=O)[C@@H](CCC(=O)O)NC(=O)[C@@H](CCC(=O)O)NC(=O)[C@@H](CCC(=O)O)NC(=O)[C@@H](CCC(=O)O)NC(=O)CN1CCN(CC(=O)O)CCN(CC(=O)O)CCN(CC(=O)O)CC1)C(=O)N[C@@H](CC(=O)O)C(=O)N[C@@H](Cc1ccccc1)C(N)=O [^111In-CP04, metal not drawn] , I found its tissue uptake at 0.5 h recorded as 4.88
